Biological target: glutathione S-transferase (GST)-fused full-length human Syk protein (Homo sapiens, UniProt P43405)
Construct: (GST)-fused full-length human Syk protein; GST (glutathione S-transferase); purchased Carna Biosciences
Experiment: Syk enzyme assay
Type: biochemical
Conditions: Syk enzyme assay, Test Example 1; read-out: IC50 of Syk-inhibitory activity
pIC50: −log10 of the molar value.
The molecules listed here are annotated with their pIC50.

INSERT INTO results (molecule, data_value) VALUES
  ('NC(=O)c1cc(F)c(N[C@@H]2CCCC[C@@H]2N)nc1Nc1cncc(-c2cccc(F)c2F)c1 (relative stereo)', '> 8.00'),
  ('C[C@H](N)[C@@H](CC1CC1)Nc1nc(Nc2cccc3c2c(F)nn3CCF)c(C(N)=O)cc1F', '7.30 to 8.00'),
  ('COc1cc(Nc2nc(N[C@@H]3CCCC[C@@H]3N)c(F)cc2C(N)=O)cc2cccnc12 (relative stereo)', '> 8.00'),
  ('COCCOc1ccccc1-c1cncc(Nc2nc(N[C@@H]3CCCC[C@@H]3N)c(F)cc2C(N)=O)c1 (relative stereo)', '> 8.00'),
  ('CCCc1nn(C2CC2)c2ccc(Nc3nc(N[C@@H]4CCCC[C@@H]4N)c(F)cc3C(N)=O)cc12', '> 8.00'),
  ('NC(=O)c1cc(F)c(N[C@@H]2CCCC[C@@H]2N)nc1Nc1ccnc(Cl)c1 (relative stereo)', '> 8.00');

Ask: Given the molecule COc1cc(Nc2nc(N[C@H](C)CN)c(F)cc2C(N)=O)cc(OC)c1 , what is its reported pIC50?
Reply: > 8.00

Ask: Repeat for the following molecule: NC(=O)c1cc(F)c(NC2CCCCC2N)nc1Nc1ccnc(-c2ccc[nH]2)c1 (stereo not shown)
Reply: > 8.00

Ask: What do you have for NC(=O)c1cc(F)c(NCC(N)Cc2ccccc2)nc1Nc1ccc2ncccc2c1 (stereo not shown) ?
Reply: 7.00 to 7.30

Ask: Then this molecule: COCCn1nc(C(C)C)c2cc(Nc3nc(N[C@@H]4CCCC[C@@H]4N)c(F)cc3C(N)=O)ccc21
Reply: > 8.00

Ask: And for COc1cc(Nc2nc(NCCN)c(F)cc2C(N)=O)cc(OC)c1 ?
Reply: 7.30 to 8.00

Ask: Item: CN1CCN(c2ccc(Nc3nc(NC4CCCCC4N)c(F)cc3C(N)=O)cn2)CC1 (stereo not shown)
Reply: 7.30 to 8.00

Ask: Request: NC(=O)c1cc(F)c(N[C@@H]2CCCC[C@@H]2N)nc1Nc1cncc(-c2nnco2)c1 (relative stereo)
Reply: > 8.00
